Test system: 889142-216-R-J1-PDC complex spheroid viability
Assay: Anticancer human tumor 889142-216-R-J1-PDC patient-derived bladder carcinoma cell line growth inhibition [POLQ]
Settings: second compound 3.16 µM; first compound 0.1 µM; hits give low values
Collected viability, T/C values appear next to each entry.
Numbers only here, please. The scale is %.

Some entries whose results are on file:
[Q] Tell me the measured viability, T/C of CC1COCCN1c1cc(-c2ccnn2C)c2ccnc(-c3ccn[nH]3)c2n1 (stereo unspecified) + COC1C(OC(N)=O)C(O)C(Oc2ccc3c(O)c(NC(=O)c4ccc(O)c(CC=C(C)C)c4)c(=O)oc3c2C)OC1(C)C , please.
[A] 59.5

[Q] Tell me the measured viability, T/C of CNCc1ccc(-c2[nH]c3cc(F)cc4c3c2CCNC4=O)cc1 + Nc1ccc(C#CCN(C(=O)Cc2ncc(C(F)(F)F)cc2C(F)(F)F)c2ccc(F)cc2)nn1 , please.
[A] 96.1

[Q] Tell me the measured viability, T/C of CC1COCCN1c1cc(C2(O)CC3CCC(C2)O3)c2cnn(-c3ccn[nH]3)c2n1 (stereo unspecified) + Nc1ccc(C#CCN(C(=O)Cc2ncc(C(F)(F)F)cc2C(F)(F)F)c2ccc(F)cc2)nn1 , please.
[A] 49.3

[Q] Tell me the measured viability, T/C of COc1cc2cc(C(=O)CCC(=O)O)sc2cc1OC + Nc1ccc(C#CCN(C(=O)Cc2ncc(C(F)(F)F)cc2C(F)(F)F)c2ccc(F)cc2)nn1 , please.
[A] 83.6

[Q] Tell me the measured viability, T/C of CCCS(=O)(=O)Nc1ccc(F)c(C(=O)c2c[nH]c3ncc(-c4ccc(Cl)cc4)cc23)c1F + Nc1ccc(C#CCN(C(=O)Cc2ncc(C(F)(F)F)cc2C(F)(F)F)c2ccc(F)cc2)nn1 , please.
[A] 92.1

Others:
[Q] Tell me the measured viability, T/C of Cn1ncnc1[C@H]1c2n[nH]c(=O)c3cc(F)cc(c23)N[C@@H]1c1ccc(F)cc1 + Cc1cccc(N(C)C(=O)C2C(O)CCN2c2nc(C)cc(C(F)(F)F)c2C#N)c1 , please.
[A] 73.4

* * *

Tested on: 889142-216-R-J1-PDC complex spheroid viability
Assay: Anticancer human tumor 889142-216-R-J1-PDC cell line growth inhibition [POLQ]
Conditions: second compound 0.1 µM; first compound 0.0316 µM; hits give low values
Recorded Endpoint: viability, T/C (%)
Numbers only here, please. The scale is %.

[Q] Give viability, T/C (889142-216-R-J1-PDC complex spheroid viability) of the following compound: COc1ccc([C@@H](O)c2cc(-c3ncnc4cc(N5CCOCC5)ccc34)c(F)cc2Cl)nn1 + COC1C(OC(N)=O)C(O)C(Oc2ccc3c(O)c(NC(=O)c4ccc(O)c(CC=C(C)C)c4)c(=O)oc3c2C)OC1(C)C
[A] 104

Others:
[Q] Give viability, T/C (889142-216-R-J1-PDC complex spheroid viability) of the following compound: CCc1c2c(nc3ccc(O)cc13)-c1cc3c(c(=O)n1C2)COC(=O)[C@]3(O)CC + Nc1ccc(C#CCN(C(=O)Cc2ncc(C(F)(F)F)cc2C(F)(F)F)c2ccc(F)cc2)nn1
[A] 44.6

[Q] Give viability, T/C (889142-216-R-J1-PDC complex spheroid viability) of the following compound: O=C(c1cc(Cc2n[nH]c(=O)c3ccccc23)ccc1F)N1CCN(C(=O)C2CC2)CC1 + COC1C(OC(N)=O)C(O)C(Oc2ccc3c(O)c(NC(=O)c4ccc(O)c(CC=C(C)C)c4)c(=O)oc3c2C)OC1(C)C
[A] 101

[Q] Give viability, T/C (889142-216-R-J1-PDC complex spheroid viability) of the following compound: COc1cc2cc(C(=O)CCC(=O)O)sc2cc1OC + COC1C(OC(N)=O)C(O)C(Oc2ccc3c(O)c(NC(=O)c4ccc(O)c(CC=C(C)C)c4)c(=O)oc3c2C)OC1(C)C
[A] 103

[Q] Give viability, T/C (889142-216-R-J1-PDC complex spheroid viability) of the following compound: CNCc1ccc(-c2[nH]c3cc(F)cc4c3c2CCNC4=O)cc1 + Nc1ccc(C#CCN(C(=O)Cc2ncc(C(F)(F)F)cc2C(F)(F)F)c2ccc(F)cc2)nn1
[A] 133

* * *

Test system: 889142-216-R-J1-PDC complex spheroid viability
Test: Anticancer human tumor 889142-216-R-J1-PDC cell line growth inhibition [POLQ];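 also: spheroids exposed to compounds for seven days; 100% = DMSO vehicle control viability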
Details: second compound 0.0316 µM; first compound 0.316 µM; hits give low values
Rule: viability, T/C below 90% gives Satisfied. Equal to or above 90% gives Not satisfied.

[Q] # TODO verify viability, T/C < 90% strictly for this molecule: CC1COCCN1c1cc(-c2ccnn2C)c2ccnc(-c3ccn[nH]3)c2n1 (stereo not given) + COC1C(OC(N)=O)C(O)C(Oc2ccc3c(O)c(NC(=O)c4ccc(O)c(CC=C(C)C)c4)c(=O)oc3c2C)OC1(C)C
[A] Satisfied

Kindly consider the entry below.
[Q] # TODO verify viability, T/C < 90% strictly for this molecule: COc1ccc([C@@H](O)c2cc(-c3ncnc4cc(N5CCOCC5)ccc34)c(F)cc2Cl)nn1 + Cc1cccc(N(C)C(=O)C2C(O)CCN2c2nc(C)cc(C(F)(F)F)c2C#N)c1
[A] Not satisfied

* * *

Collected viability, T/C values appear next to each entry.
Test system: 889142-216-R-J1-PDC complex spheroid viability
Assay: Anticancer human tumor 889142-216-R-J1-PDC cell line growth inhibition [POLQ];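 also: spheroids exposed to compounds for seven days; 100% = DMSO vehicle control viability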
Conditions: second compound 1 µM; first compound 3.16 µM; hits give low values

Some entries whose results are on file:
[Q] Tell me the measured viability, T/C of O=C(c1cc(Cc2n[nH]c(=O)c3ccccc23)ccc1F)N1CCN(C(=O)C2CC2)CC1 + Nc1ccc(C#CCN(C(=O)Cc2ncc(C(F)(F)F)cc2C(F)(F)F)c2ccc(F)cc2)nn1 , please.
[A] 85.2%

[Q] Tell me the measured viability, T/C of CCc1cc2c(N3CCc4c(cc(Cn5ccnc5)cc4-c4cn(C)nc4C(F)(F)F)C3=O)ccnc2c(OC)n1 + Cc1cccc(N(C)C(=O)C2C(O)CCN2c2nc(C)cc(C(F)(F)F)c2C#N)c1 , please.
[A] 127%

Consider the record given below.
[Q] Tell me the measured viability, T/C of C=CC(=O)N1CCN(c2nc(=O)n(-c3c(C)ccnc3C(C)C)c3nc(-c4c(O)cccc4F)c(F)cc23)C(C)C1 (stereo not drawn) + Cc1cccc(N(C)C(=O)C2C(O)CCN2c2nc(C)cc(C(F)(F)F)c2C#N)c1 , please.
[A] 124%

* * *

System: 889142-216-R-J1-PDC complex spheroid viability
Assay: Anticancer human tumor 889142-216-R-J1-PDC cell line growth inhibition [POLQ]; active = viability on the fitted dose curve at most 10% of control; inactive = the rest;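 also: spheroids exposed to compounds for seven days; 100% = DMSO vehicle control viability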
Conditions: second compound 0.0316 µM; first compound 1 µM
Description: Multicellular complex tumor spheroid response to Polymerase (POL) inhibitors (novobiocin, ART-558, RP6685) in combination with a variety of drugs and investigational agents in selected tumor cell lines The POL inhibitors (novobiocin, ART-558, and RP6685) were evaluated both individually and in combination with standard of care and investigational anticancer small molecules within a complex spheroid model of solid tumors. . […]
# output must be one of 1.0 (active), 0.0 (inactive)

[Q] // param item: COc1cccc2c1C(=O)c1c(O)c3c(c(O)c1C2=O)CC(O)(C(=O)CO)CC3OC1CC(N)C(O)C(C)O1 (stereo not drawn) + Cc1cccc(N(C)C(=O)C2C(O)CCN2c2nc(C)cc(C(F)(F)F)c2C#N)c1 ; yields the recorded call
[A] 1.0

[Q] // param item: CCCS(=O)(=O)Nc1ccc(F)c(C(=O)c2c[nH]c3ncc(-c4ccc(Cl)cc4)cc23)c1F + Nc1ccc(C#CCN(C(=O)Cc2ncc(C(F)(F)F)cc2C(F)(F)F)c2ccc(F)cc2)nn1 ; yields the recorded call
[A] 0.0

Kindly consider the entry below.
[Q] // param item: CCc1cc2c(N3CCc4c(cc(Cn5ccnc5)cc4-c4cn(C)nc4C(F)(F)F)C3=O)cc(C)nc2c(OC)n1 + COC1C(OC(N)=O)C(O)C(Oc2ccc3c(O)c(NC(=O)c4ccc(O)c(CC=C(C)C)c4)c(=O)oc3c2C)OC1(C)C ; yields the recorded call
[A] 0.0

* * *

Test system: 889142-216-R-J1-PDC complex spheroid viability
Assay: Anticancer human tumor 889142-216-R-J1-PDC cell line growth inhibition [POLQ];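 also: spheroids exposed to compounds for seven days; 100% = DMSO vehicle control viability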
Conditions: second compound 1 µM; first compound 3.16 µM; hits give low values
Recorded Endpoint: viability, T/C (%)
Numbers only here, please. The scale is %.

[Q] Tell me the measured viability, T/C of CC(C)n1c(=O)n(C)c2cnc3cc(F)c(-c4ccc(OCCCN5CCCCC5)nc4)cc3c21 + COC1C(OC(N)=O)C(O)C(Oc2ccc3c(O)c(NC(=O)c4ccc(O)c(CC=C(C)C)c4)c(=O)oc3c2C)OC1(C)C , please.
[A] 67.1

[Q] Tell me the measured viability, T/C of CCc1cc2c(N3CCc4c(cc(Cn5ccnc5)cc4-c4cn(C)nc4C(F)(F)F)C3=O)cc(C)nc2c(OC)n1 + Cc1cccc(N(C)C(=O)C2C(O)CCN2c2nc(C)cc(C(F)(F)F)c2C#N)c1 , please.
[A] 94.7

Consider the record given below.
[Q] Tell me the measured viability, T/C of CNCc1ccc(-c2[nH]c3cc(F)cc4c3c2CCNC4=O)cc1 + Cc1cccc(N(C)C(=O)C2C(O)CCN2c2nc(C)cc(C(F)(F)F)c2C#N)c1 , please.
[A] 113
